Assign protein stability index to each entry below.
System: Saccharomyces cerevisiae
testMethodNotes: protein stability index of tFT-peptide fusion (C-terminal peptide) (PSI (0-1 scale)); higher = more stable (slower turnover)
experimentalSetup: genetic background: wild type; temperature: 30 C
Field format: numeric only.

Challenge: GET protein stability index where system = Saccharomyces cerevisiae and item = LLGHSTPAHVFL
Response given: 0.713

Challenge: GET protein stability index where system = Saccharomyces cerevisiae and item = TLSHPANNKNNL
Response given: 0.681

Challenge: GET protein stability index where system = Saccharomyces cerevisiae and item = GYGNQLILAISN
Response given: 0.576

Challenge: GET protein stability index where system = Saccharomyces cerevisiae and item = SCCPVESSHSLP
Response given: 0.612

Challenge: GET protein stability index where system = Saccharomyces cerevisiae and item = FLASPHPPGLSP
Response given: 0.693

Challenge: GET protein stability index where system = Saccharomyces cerevisiae and item = LLLASSHAPYLH
Response given: 0.77

Challenge: GET protein stability index where system = Saccharomyces cerevisiae and item = VFVPPPPSPSSL
Response given: 0.683

Challenge: GET protein stability index where system = Saccharomyces cerevisiae and item = ECSFAGIWVDLG
Response given: 0.689

Challenge: GET protein stability index where system = Saccharomyces cerevisiae and item = LIPTIRRKHRAT
Response given: 0.625

Challenge: GET protein stability index where system = Saccharomyces cerevisiae and item = KVYTALWLLAGN
Response given: 0.698

Challenge: GET protein stability index where system = Saccharomyces cerevisiae and item = HAPFPPLLVSSL
Response given: 0.625

Challenge: GET protein stability index where system = Saccharomyces cerevisiae and item = LNTVNGRSSTAK
Response given: 0.665

Challenge: GET protein stability index where system = Saccharomyces cerevisiae and item = SCLSLALLVFFG
Response given: 0.411

Challenge: GET protein stability index where system = Saccharomyces cerevisiae and item = CGVEERRIGGVC
Response given: 0.725

Challenge: GET protein stability index where system = Saccharomyces cerevisiae and item = FCFLSALTCLCA
Response given: 0.589

Challenge: GET protein stability index where system = Saccharomyces cerevisiae and item = VAVRCVLWEGFS
Response given: 0.76

Challenge: GET protein stability index where system = Saccharomyces cerevisiae and item = NTPNRNFTYTEN
Response given: 0.685

Challenge: GET protein stability index where system = Saccharomyces cerevisiae and item = VRGLGVIGVCVL
Response given: 0.741

Challenge: GET protein stability index where system = Saccharomyces cerevisiae and item = FFVLGPVVMSIH
Response given: 0.385

Challenge: GET protein stability index where system = Saccharomyces cerevisiae and item = PLPLPPPFPPLS
Response given: 0.59

Challenge: GET protein stability index where system = Saccharomyces cerevisiae and item = RRTGTFSGLAGL
Response given: 0.696

Challenge: GET protein stability index where system = Saccharomyces cerevisiae and item = PSVRRLPARRRT
Response given: 0.626

Challenge: GET protein stability index where system = Saccharomyces cerevisiae and item = SFAPPPPPPLPS
Response given: 0.686

Challenge: GET protein stability index where system = Saccharomyces cerevisiae and item = FPVSLSSVRMFV
Response given: 0.625

Challenge: GET protein stability index where system = Saccharomyces cerevisiae and item = GGDARGRGGMPD
Response given: 0.712

Challenge: GET protein stability index where system = Saccharomyces cerevisiae and item = LLLLDLWLPSVL
Response given: 0.76

Challenge: GET protein stability index where system = Saccharomyces cerevisiae and item = GFLVNNCLGFLW
Response given: 0.782

Challenge: GET protein stability index where system = Saccharomyces cerevisiae and item = PSRAPQGRADNT
Response given: 0.69

Challenge: GET protein stability index where system = Saccharomyces cerevisiae and item = SLYRKTLCMAYS
Response given: 0.558

Challenge: GET protein stability index where system = Saccharomyces cerevisiae and item = VHKMAARGATRL
Response given: 0.647

Challenge: GET protein stability index where system = Saccharomyces cerevisiae and item = PTSFPAPNLPPD
Response given: 0.669

Challenge: GET protein stability index where system = Saccharomyces cerevisiae and item = LPPPPPHRTGDC
Response given: 0.586

Challenge: GET protein stability index where system = Saccharomyces cerevisiae and item = PPLPATHLPPPP
Response given: 0.802

Challenge: GET protein stability index where system = Saccharomyces cerevisiae and item = LPCTTPLLFTPV
Response given: 0.706

Challenge: GET protein stability index where system = Saccharomyces cerevisiae and item = EKIERDKRKKVK
Response given: 0.621

Challenge: GET protein stability index where system = Saccharomyces cerevisiae and item = WARDLGAVAVQT
Response given: 0.518

Challenge: GET protein stability index where system = Saccharomyces cerevisiae and item = ASLIGHLKATSP
Response given: 0.672

Challenge: GET protein stability index where system = Saccharomyces cerevisiae and item = ILFKSTRAICSL
Response given: 0.621

Challenge: GET protein stability index where system = Saccharomyces cerevisiae and item = VPISLSVVVLPV
Response given: 0.569

Challenge: GET protein stability index where system = Saccharomyces cerevisiae and item = CFRFPILTSHFY
Response given: 0.592

Challenge: GET protein stability index where system = Saccharomyces cerevisiae and item = RPHEAPTPGPVR
Response given: 0.646

Challenge: GET protein stability index where system = Saccharomyces cerevisiae and item = FESYLRLGLGGR
Response given: 0.667

Challenge: GET protein stability index where system = Saccharomyces cerevisiae and item = LFMRGEDEMFSV
Response given: 0.746

Challenge: GET protein stability index where system = Saccharomyces cerevisiae and item = GGSGGAVEERGG
Response given: 0.657

Challenge: GET protein stability index where system = Saccharomyces cerevisiae and item = NPSSKVIALWKI
Response given: 0.556

Challenge: GET protein stability index where system = Saccharomyces cerevisiae and item = WAPHLPQPSRCS
Response given: 0.743

Challenge: GET protein stability index where system = Saccharomyces cerevisiae and item = VWFGGLAVCCGG
Response given: 0.396

Challenge: GET protein stability index where system = Saccharomyces cerevisiae and item = CLALLSYLGFTF
Response given: 0.675

Challenge: GET protein stability index where system = Saccharomyces cerevisiae and item = KDTHNEKKGTPS
Response given: 0.686

Challenge: GET protein stability index where system = Saccharomyces cerevisiae and item = STPHPPPILHVL
Response given: 0.581

Challenge: GET protein stability index where system = Saccharomyces cerevisiae and item = GGVSCYVHRRAR
Response given: 0.688

Challenge: GET protein stability index where system = Saccharomyces cerevisiae and item = CKGSGLGGGVVS
Response given: 0.583

Challenge: GET protein stability index where system = Saccharomyces cerevisiae and item = KNQTDRRKKIIN
Response given: 0.648

Challenge: GET protein stability index where system = Saccharomyces cerevisiae and item = LIPAASLSPLAC
Response given: 0.562

Challenge: GET protein stability index where system = Saccharomyces cerevisiae and item = LGPSPQRLRYPT
Response given: 0.65

Challenge: GET protein stability index where system = Saccharomyces cerevisiae and item = VIDLIYSMKVRR
Response given: 0.688

Challenge: GET protein stability index where system = Saccharomyces cerevisiae and item = YTCFLFLLRCMT
Response given: 0.292

Challenge: GET protein stability index where system = Saccharomyces cerevisiae and item = AAPRGRGRFAAA
Response given: 0.699

Challenge: GET protein stability index where system = Saccharomyces cerevisiae and item = HPPVFFSPCGIL
Response given: 0.634

Challenge: GET protein stability index where system = Saccharomyces cerevisiae and item = VSIPRTLFITRF
Response given: 0.67

Challenge: GET protein stability index where system = Saccharomyces cerevisiae and item = RRSENHTEHKGD
Response given: 0.712

Challenge: GET protein stability index where system = Saccharomyces cerevisiae and item = TSVAYVWRLFTE
Response given: 0.597

Challenge: GET protein stability index where system = Saccharomyces cerevisiae and item = HGRGVEYGVCDN
Response given: 0.678

Challenge: GET protein stability index where system = Saccharomyces cerevisiae and item = ALEFRDASLPVQ
Response given: 0.682

Challenge: GET protein stability index where system = Saccharomyces cerevisiae and item = SGRIYLVGLRYI
Response given: 0.538

Challenge: GET protein stability index where system = Saccharomyces cerevisiae and item = PPPPPLSPHSPP
Response given: 0.699

Challenge: GET protein stability index where system = Saccharomyces cerevisiae and item = EDDQETPDTVQS
Response given: 0.66

Challenge: GET protein stability index where system = Saccharomyces cerevisiae and item = PRRPPPSPPVPP
Response given: 0.532

Challenge: GET protein stability index where system = Saccharomyces cerevisiae and item = NSCVFCLCHDLA
Response given: 0.699

Challenge: GET protein stability index where system = Saccharomyces cerevisiae and item = PPTRPFHLFDHL
Response given: 0.716

Challenge: GET protein stability index where system = Saccharomyces cerevisiae and item = SPTPSPCIPSPP
Response given: 0.701

Challenge: GET protein stability index where system = Saccharomyces cerevisiae and item = FFLLSVVLKYSV
Response given: 0.19

Challenge: GET protein stability index where system = Saccharomyces cerevisiae and item = GGGRGGFRVVVG
Response given: 0.744

Challenge: GET protein stability index where system = Saccharomyces cerevisiae and item = VGVGGGSVASCV
Response given: 0.671

Challenge: GET protein stability index where system = Saccharomyces cerevisiae and item = PSYRVVVFSLPD
Response given: 0.758

Challenge: GET protein stability index where system = Saccharomyces cerevisiae and item = AFVVYSGSHGLV
Response given: 0.57

Challenge: GET protein stability index where system = Saccharomyces cerevisiae and item = CCFFPPPGRTRQ
Response given: 0.676

Challenge: GET protein stability index where system = Saccharomyces cerevisiae and item = VAVIGAPPGNSR
Response given: 0.672

Challenge: GET protein stability index where system = Saccharomyces cerevisiae and item = WVRVSVPAVGRI
Response given: 0.703

Challenge: GET protein stability index where system = Saccharomyces cerevisiae and item = QGPPPTPASHGP
Response given: 0.672

Challenge: GET protein stability index where system = Saccharomyces cerevisiae and item = PFSLCFVFPFFF;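 note: PSI is a weighted mean of sequencing reads over stability bins, variants kept only with over 10 reads, mCherry proximal and sfGFP distal, peptide attached via GGGS linker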
Response given: 0.187
